Entries and their pKi
- target or system: soluble human BACE1 catalytic domain (Homo sapiens (Human), UniProt P56817)
- Sequence (P56817 75-416): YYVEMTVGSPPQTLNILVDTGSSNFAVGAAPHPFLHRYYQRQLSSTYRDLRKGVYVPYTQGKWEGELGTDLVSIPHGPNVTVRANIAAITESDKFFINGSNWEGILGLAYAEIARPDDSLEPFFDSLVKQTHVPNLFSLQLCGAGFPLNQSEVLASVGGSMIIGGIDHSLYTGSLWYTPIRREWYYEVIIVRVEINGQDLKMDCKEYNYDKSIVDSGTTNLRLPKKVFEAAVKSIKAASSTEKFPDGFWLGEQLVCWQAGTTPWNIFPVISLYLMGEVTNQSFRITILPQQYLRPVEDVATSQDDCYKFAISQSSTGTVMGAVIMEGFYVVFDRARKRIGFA
Note on pKi: it is the negative log10 of concentration, concentration in mol/L.

Worked set:
{"columns": ["compound", "pKi"],
 "data": [
  ["C[C@@]1(c2sc(C(=O)NCc3cnoc3)cc2Cl)CS(=O)(=O)C2(CCCCC2)C(=N)N1 [Example 80]", 6.60],
  ["C[C@@]1(c2cc(NC(=O)c3ccc(F)cn3)ccc2F)CS(=O)(=O)C2(CCCC2)C(=N)N1 [Example 13]", 8.51],
  ["C[C@@]1(c2sc(-c3cccc(C#N)c3)cc2Cl)CS(=O)(=O)C2(CCCCC2)C(=N)N1 [Example 45]", 7.32],
  ["C[C@@]1(c2cc([N+](=O)[O-])ccc2F)CS(=O)(=O)[C@]2(CCOC2)C(=N)N1", 5.17],
  ["C[C@@]1(c2cc(NC(=O)CC(F)(F)F)ccc2F)CS(=O)(=O)[C@]2(CCOC2)C(=N)N1 [Example 81r]", 5.50],
  ["C[C@@]1(c2sc(Br)cc2Cl)CS(=O)(=O)C2(CCC2)C(=N)N1", 5.81],
  ["C[C@@]1(c2cc(NC(=O)c3ncc(F)cc3F)ccc2F)CS(=O)(=O)C2(CC2)C(=N)N1 [Example 4]", 8.30]
]}

Record C[C@@]1(c2cc(NC(=O)c3ccc(F)cn3)ccc2F)CS(=O)(=O)C2(CC2)C(=N)N1 [Example 3] has soluble human BACE1 catalytic domain (Homo sapiens (Human), UniProt P56817) pKi equal to 8.26
